test: human hepatoma cell viability loss – ATP luminescence, cytotoxicity control for P. falciparum antimalarial project, primary screen (AID 2303); details: HepG2 viability, 24-48 h, at 10 µM;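 note: 0% = DMSO wells and 100% = digitonin-killed cells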
Activity calls are given as the source filed them.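 Rule for the calls: active = inhibition above 50%; inactive = the rest.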
Answer with one of the outcomes yes (1) = active, no (0) = inactive

Solved cases below.
molecule: N#Cc1ccc(CN2CCC(Oc3ccc(NC(=O)c4cccs4)cc3Cl)CC2)cc1
label_value: no (0)

molecule: c1ccc(Oc2ccc(Nc3ccnc4cc(-c5csc(CNCCN6CCOCC6)n5)ccc34)cc2)cc1
label_value: no (0)

molecule: FC(F)(F)c1cccc(CNC2CCN(CC3CCCCC3)CC2)c1
label_value: no (0)

molecule: Cc1ccc(CON2C(N)=NC(N)=NC23CCCCC3)c2ccccc12
label_value: yes (1)

molecule: Cn1nc(C(F)(F)F)c(-c2ccc(F)cc2)c1NC(=O)Nc1ccc(F)cc1F
label_value: no (0)

Dear colleague, could you share the recorded outcome for Cc1ccc(CN2CCN(CC(O)COc3ccc4c(c3)CCC4)CC2)cc1 (stereo not drawn) when you have a moment? no (0)

Dear colleague, could you share the recorded outcome for CN1CCC(NCc2ccc(-c3ccc(C(F)(F)F)cc3)cc2)CC1 when you have a moment? yes (1)

Dear colleague, could you share the recorded outcome for Nc1cc(-c2ccc(Br)cc2O)nc2ccccc12 when you have a moment? no (0)

---

assay: human hepatoma cell viability loss – ATP luminescence, cytotoxicity control for P. falciparum antimalarial project, primary screen (AID 2303); conditions: HepG2 viability, 24-48 h, at 10 µM, hits give high values;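 note: 0% = DMSO wells and 100% = digitonin-killed cells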
property_label: inhibition (%)
Answers are plain numbers, in %.

Worked set:
compound: O=C(CCN1C(=O)c2ccccc2C1=O)N1CCN(CC=Cc2ccccc2)CC1
measured: 10

compound: N#Cc1ccc(-c2ccc3nc(N4CCCN(C5CCC5)CC4)ccc3c2)cc1
measured: 36

compound: Cc1nn(-c2ccccc2)c2sc(C(=O)N(CCCN(C)C)c3nc(-c4ccccc4)cs3)cc12
measured: 99

compound: COC(=O)c1c(C#N)c(OC)cc(O)c1CSC[C@@H](CN1CCCCC1)Nc1nc(-c2ccc([N+](=O)[O-])cc2)cs1
measured: 8

compound: N#Cc1ccc2[nH]cc(CN3CCC4(CC3)CN(CCNCc3ccccc3)C(=O)CO4)c2c1
measured: -3

compound: Cc1cc(N[C@@H](Cc2ccccc2)C(=O)NCc2cccs2)nc(NCCOc2ccccc2)n1
measured: 2

Go through the list and state inhibition for each entry.
1. CC(C)(C)C(=O)Oc1ccc(CC2NCCc3cc(OC(=O)C(C)(C)C)c(OC(=O)C(C)(C)C)cc32)cc1OC(=O)C(C)(C)C (stereo not drawn)
2. Fc1cc(CN2CCCC2)ccc1OCCCN1CCN(c2cccc(Cl)c2Cl)CC1

[3, 67]

---

assay: antimalarial activity against Dd2 strain (AID 2302);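 note: 0% = DMSO untreated growth and 100% = chloroquine plus artemisinin killed control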; conditions: P. falciparum Dd2 in RBCs, LDH growth readout, 72 h; at 2 µM
Active and inactive are the calls of the source.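 How the source made its calls: active means growth inhibition above 50% at the single 2 µM test dose, taken to imply half-maximal potency below 2 µM; inactive means the rest.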
Answer with one of the outcomes active, inactive

Solved cases below.
compound: CC(=O)Nc1nc(C(=O)Nc2ccc(-c3cccc(-c4nc5ccccc5[nH]4)c3)cc2)cs1
label_value: active

compound: COc1cccc(Nc2c(C(N)=O)cnc3ccc(-c4ccccc4)cc23)c1
label_value: active

compound: COc1ccc(-c2cnc(N)c(-c3ccc(C(N)=O)cc3)c2)cc1OC
label_value: active

Kindly review the next compound as well.
Dear colleague, could you share the recorded outcome for O=C(NCC1CCC(C(=O)NC2CCCc3ccccc32)CC1)c1ccc(O)c(-c2cccc([N+](=O)[O-])c2)c1 (stereo unspecified) when you have a moment? active

---

Please respond with reported inhibition for every item in the list.
biological target: L-lactate dehydrogenase (Plasmodium falciparum (isolate CDC / Honduras)) (UniProt Q27743); test: PfLDH activity inhibition – cell lysate, 3D7 strain, counter-screen for P. falciparum growth inhibition project (AID 2304);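 note: 0% = vehicle and 100% = reference inhibitor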; details: P. falciparum 3D7 crude extract, LDH APAD/NBT absorbance; at 2 µM; hits give high values
Sequence (Q27743 whole entry, looked up): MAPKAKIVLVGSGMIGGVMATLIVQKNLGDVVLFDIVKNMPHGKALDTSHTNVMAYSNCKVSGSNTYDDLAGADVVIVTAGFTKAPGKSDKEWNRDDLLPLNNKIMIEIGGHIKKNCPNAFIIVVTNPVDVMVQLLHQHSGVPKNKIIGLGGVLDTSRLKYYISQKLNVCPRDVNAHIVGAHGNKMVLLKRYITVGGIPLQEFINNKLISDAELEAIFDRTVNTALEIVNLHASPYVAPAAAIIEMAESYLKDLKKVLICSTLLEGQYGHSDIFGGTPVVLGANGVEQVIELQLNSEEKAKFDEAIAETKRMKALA
One number for each entry, in %.

Go through the list and state inhibition for each entry.
1. CCCCCCCCc1c(C)[nH]c(C)c(Cl)c1=O
2. CCCC(=O)NC(NC(=S)Nc1ccc([N+](=O)[O-])cc1)C(Cl)(Cl)Cl (stereo not drawn)
3. CCC(=O)Nc1ccc(C(O)CN2CCC3(C=Cc4ccccc4O3)CC2)cc1 (stereo not drawn)
4. CCCCCN1CCC(CNS(=O)(=O)c2ccc(C(=O)Nc3cccc(C(F)(F)F)c3)cc2)CC1
5. COc1ccccc1C1CCN(CCCCNC(=O)c2ccc(NC(=O)c3ccc(Cl)cc3)cc2)CC1
6. NOCCCOc1ccccc1
7. CN(C(=O)NCCc1ccccc1)C1CCN(CCCCCNC(=O)/C=C/c2ccc(Cl)c(Cl)c2)CC1

1. -3
2. 4
3. -1
4. -7
5. 6
6. -4
7. -7

---

target: L-lactate dehydrogenase (Plasmodium falciparum (isolate CDC / Honduras)) (UniProt Q27743); experiment: PfLDH activity inhibition – cell lysate, 3D7 strain, counter-screen for P. falciparum growth inhibition project (AID 2304);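 note: 0% = vehicle and 100% = reference inhibitor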; conditions: P. falciparum 3D7 crude extract, LDH APAD/NBT absorbance; at 2 µM; hits give high values
Please respond with reported inhibition for every item in the list.
One number for each entry, in %.

Worked set:
compound_structure_string: CC(C)COc1ccc(Cl)cc1Cc1ccc(-c2nc3ccc(Br)cc3[nH]2)o1
measured_target: L-lactate dehydrogenase (Plasmodium falciparum (isolate CDC / Honduras)) (UniProt Q27743)
unit_symbol: %
inhibition: -3
--
compound_structure_string: O=[N+]([O-])c1ccc(Nc2nc(NN=Cc3ccc(-c4ccc([N+](=O)[O-])cc4)o3)nc(Nc3ccccc3)n2)cc1
measured_target: L-lactate dehydrogenase (Plasmodium falciparum (isolate CDC / Honduras)) (UniProt Q27743)
unit_symbol: %
inhibition: -5
--
compound_structure_string: COc1ccc(NC(=O)Nc2cc(C)nc3cccnc23)cc1Cn1ccnc1
measured_target: L-lactate dehydrogenase (Plasmodium falciparum (isolate CDC / Honduras)) (UniProt Q27743)
unit_symbol: %
inhibition: -3

Consider now this further compound.
Look up inhibition for this compound: CC1(C)N=C(N)N=C(N)N1OCCSc1ccc(Cl)c(Cl)c1 -1

---

assay: antimalarial activity against Dd2 strain (AID 2302);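 note: 0% = DMSO untreated growth and 100% = chloroquine plus artemisinin killed control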; settings: P. falciparum Dd2 in RBCs, LDH growth readout, 72 h; at 2 µM; hits give high values
Short version: growth inhibition at least 80% is class 1, less is class 0.

Solved cases below.
compound: O=C(/C=C/c1ccc(Cl)c(Cl)c1)NCCCCCN1CCC(CCNC(=O)/C=C/c2ccccc2F)CC1
label_value: class 0
//
compound: CC(C)[C@H](NC(=O)NC1CCC(CCN2[C@@H]3CC[C@H]2CC(OC(=O)C(CO)c2ccccc2)C3)CC1)C(O)(c1ccccc1)c1ccccc1 (some centres not stated)
label_value: class 0
//
compound: Cc1ccc2c(c1[N+](=O)[O-])N=NCC2Oc1ccccc1 (configuration not stated)
label_value: class 0
//
compound: CCn1c(-c2nc(-c3ccc4c(c3)OCO4)cnc2N)nc2cnccc21
label_value: class 1
//
compound: CN(C)S(=O)(=O)c1cc(-c2ccc3nccc(-c4cccc(S(N)(=O)=O)c4)c3c2)cnc1N
label_value: class 1
//
compound: COc1cccc(-c2csc(C(=O)NC3CCCCN(Cc4ccc(C(C)(C)C)cc4)C3)c2)c1 (configuration not stated)
label_value: class 0

Kindly determine if growth inhibition recorded for COc1ccc(C=NNc2cc(C)nc3ccccc23)c2ccccc12 is above or exactly 80%. class 0

Kindly determine if growth inhibition recorded for COc1ccc(CCNCCCCCCNCCc2ccc(Cl)c3ccccc23)cc1OC is above or exactly 80%. class 0

Kindly determine if growth inhibition recorded for Cc1ccc(OC2CCN(c3ccc(C(=O)NC4CC4)cn3)CC2)cc1 is above or exactly 80%. class 0

Kindly determine if growth inhibition recorded for COc1cccc(OC)c1C(=O)Nc1cccc(-c2nn3ccccc3c2-c2ccnc(Nc3cccc(F)c3)n2)c1 is above or exactly 80%. class 0

Kindly determine if growth inhibition recorded for Clc1ccc(NC(=NCCCCCCCN=C(Nc2ccc(Cl)cc2)Nc2ccc(Cl)cc2)Nc2ccc(Cl)cc2)cc1 is above or exactly 80%. class 1

Kindly determine if growth inhibition recorded for COc1cccc(CN2CCN(C(c3ccccc3)c3ccccc3)CC2)c1O is above or exactly 80%. class 1

Kindly determine if growth inhibition recorded for Clc1ccc(-c2cc(-c3csc(Nc4ccncc4)n3)on2)cc1 is above or exactly 80%. class 1

Kindly determine if growth inhibition recorded for COc1ccccc1C(C)NCC(=O)Nc1ccccc1Sc1ccccc1 (configuration not stated) is above or exactly 80%. class 0

---

Please respond with reported growth inhibition for every item in the list.
experiment: antimalarial activity against Dd2 strain (AID 2302);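 note: 0% = DMSO untreated growth and 100% = chloroquine plus artemisinin killed control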; conditions: P. falciparum Dd2 in RBCs, LDH growth readout, 72 h; at 2 µM; hits give high values
Give bare numbers, in %.

compound_structure_string: COc1ccc2nccc([C@@H](O)CN3CCC(NCc4nc5c(C#N)cccc5[nH]4)CC3)c2c1
growth inhibition / %: 9
--
compound_structure_string: CCOc1ccccc1CCNCC1CCN(CC2CCCCC2)CC1
growth inhibition / %: 59

Consider now this further compound.
Look up growth inhibition for this compound: CCOc1cc(C(=O)NC2CC(C)(C)NC(C)(C)C2)ccc1-c1cc2cc(Cl)c(Cl)cc2[nH]1 46
